# experimental_target: MDM2 (Homo sapiens, UniProt Q00987)
# Sequence (Q00987 whole entry): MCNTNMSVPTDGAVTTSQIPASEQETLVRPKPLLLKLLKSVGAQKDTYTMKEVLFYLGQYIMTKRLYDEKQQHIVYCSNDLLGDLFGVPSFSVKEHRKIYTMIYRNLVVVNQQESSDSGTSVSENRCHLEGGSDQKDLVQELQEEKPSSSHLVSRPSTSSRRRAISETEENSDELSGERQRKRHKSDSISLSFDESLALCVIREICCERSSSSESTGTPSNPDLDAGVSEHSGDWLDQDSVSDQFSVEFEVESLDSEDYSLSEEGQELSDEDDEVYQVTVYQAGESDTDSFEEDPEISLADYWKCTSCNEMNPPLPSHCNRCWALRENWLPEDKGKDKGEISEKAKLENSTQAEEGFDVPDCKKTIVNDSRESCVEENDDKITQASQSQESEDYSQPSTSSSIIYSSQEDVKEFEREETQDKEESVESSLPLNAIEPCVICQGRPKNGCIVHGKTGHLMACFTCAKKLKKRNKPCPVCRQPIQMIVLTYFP
# protocol_summary: MDM2 binding screen: displacement of fluorescent p53 peptide probe FP53 (fluorescence polarization)
# test_context: Acid 25; replicate; crude macrocycle reactions
Numbered stars: 1 amine (or outer) side, 2 acyl side, 3 side chain; on linkers, the order of the positions; unused ones are H or OH. Bridge positions count the residues as written; N and C are the ends. Square brackets hold non-standard residues; d marks the D form. Peptide text beside a SMILES is read from it. * marks the point of attachment. Benzoyl(4-Cl) = O=C(c1ccc(Cl)cc1)*; Cysteamide = C(CS[*:3])N[*:1]; Dap = NC[C@H](N)C(=O)O; Mpa = O=C(O)CCS
The threshold is 0.07. Values of fraction fluorescent probe displaced, Replicate beneath it are tagged Condition met; values meeting or exceeding it are tagged Condition not met.

Check out these entries, answers already filled in.
>>> assigned_class("O=C1CCSSCCNC(=O)[C@H](Cc2c[nH]c3ccccc23)NC(=O)[C@@H]2CCCN2C(=O)[C@H](CNC(=O)c2ccc(Cl)cc2)N1 [X D3 B1 W Acid 25] ([Mpa][Dap](Benzoyl(4-Cl))PW-Cysteamide; disulfide 1-C)")
"Condition not met"
>>> assigned_class("O=C1CCNC(=O)[C@H](Cc2ccccc2)NC(=O)[C@H](CNC(=O)c2ccc(Cl)cc2)NC(=O)CCSSCCN1")
"Condition met"
>>> assigned_class("O=C1CCSSCCNC(=O)C2CN(C(=O)c3ccc(Cl)cc3)CCN2C(=O)C(Cc2ccccc2)NC(=O)CCN1 (mixture of isomers)")
"Condition met"

Here is another molecule to look at.
Does this molecule meet the criterion fraction fluorescent probe displaced, Replicate < 0.07? O=C1NCCSSCCC(=O)N2CCCC(C2)C(=O)N2CCN(C(=O)c3ccc(Cl)cc3)CC2C(=O)NC1Cc1c[nH]c2ccccc12 (centres unmarked)
Condition not met

###

# experimental_target: MDM2 (Homo sapiens)
# protocol_summary: MDM2 binding screen of Libraries 3 and 4: displacement of fluorescent probe F-M8 at 750 nM macrocycle
# test_context: Panel b, Library 3: 63 scaffolds combinatorially acylated with 15 carboxylic acids at 30 picomole scale; displacement of fluorescent peptide probe; macrocycle 750 nM
Quick reference for fraction of fluorescent probe displaced among some compounds

>>> value_reported("CN1C(=O)[C@@H](CNC(=O)/C=C/c2ccncc2)NC(=O)[C@H]2CCCN(C2)C(=O)CCSSCCNC(=O)[C@@H]1Cc1c[nH]c2ccccc12")
-0.00844
>>> value_reported("CN1C(=O)[C@@H](CNC(=O)/C=C/c2ccc(OCc3ccccc3)cc2)NC(=O)[C@@H]2CN(CCO2)C(=O)CCSSCCNC(=O)[C@@H]1Cc1c[nH]c2ccccc12")
0.015
>>> value_reported("Cn1cc(C[C@@H]2NC(=O)[C@H](CNC(=O)/C=C/c3ccc4ccccc4c3)NC(=O)C3(CC3)CNC(=O)CCSSCCNC2=O)c2ccccc21")
0.028
>>> value_reported("O=C(/C=C/c1ccncc1)NC[C@@H]1NC(=O)[C@H]2CCCN(C2)C(=O)CCSSCCNC(=O)[C@@H](Cc2c[nH]c3ccccc23)NC1=O")
-0.015

Turning to the following compound.
// query fraction of fluorescent probe displaced value for entry CN1C(=O)[C@H](CNC(=O)/C=C/c2ccc3ccccc3c2)NC(=O)[C@H]2CCCN(C2)C(=O)CCSSCCNC(=O)[C@@H]1Cc1c[nH]c2ccccc12
0.015

###

Quick reference for % thrombin activity, Repeat screen among some molecules
# experimental_target: thrombin (Homo sapiens, UniProt P00734)
# Construct: consists of two polypeptide chains of 36 (light chain) and 259 amino acid
# protocol_summary: Thrombin inhibition screen of crude macrocycle reactions (residual thrombin activity, fluorogenic substrate Z-Gly-Gly-Arg-AMC)
# Type: biochemical
# test_context: 10 µM macrocycle concentration; macrocycles containing acid 14; crude reaction; replicate reaction and screen
Report only the number, with the unit % understood.

Illustrative cases are given below, each with its answer.
>>> value_reported("O=C1CCSSCCNC(=O)C2CCCN(C2)C(=O)C2CC(NC(=O)c3ccc(Cl)s3)CN2C(=O)C(Cc2ccc(O)cc2)N1 (stereo not shown)")
115.2
>>> value_reported("O=C1CCSSCCNC(=O)C(Cc2c[nH]cn2)NC(=O)CCNC(=O)C(CNC(=O)c2ccc(Cl)s2)N1 (stereo not shown)")
71.1
>>> value_reported("O=C1CCSSCCNC(=O)[C@H]2CCCN(C2)C(=O)[C@H](Cc2c[nH]c3ccccc23)NC(=O)C2(CCN(C(=O)c3ccc(Cl)s3)CC2)N1")
101.4

Turning to the following molecule.
// query % thrombin activity, Repeat screen value for entry O=C1CCSSCCNC(=O)C(CCCCNC(=O)c2ccc(Cl)s2)NC(=O)C(CO)NC(=O)c2cccc(c2)CN1 (stereo not shown) [X B5 S D1]
100.5

###

# experimental_target: UniProt:Q00987
# protocol_summary: MDM2 binding screen of Libraries 3 and 4: displacement of fluorescent probe F-M8 at 750 nM macrocycle
# test_context: Panel b, Library 3: 63 scaffolds combinatorially acylated with 15 carboxylic acids at 30 picomole scale; displacement of fluorescent peptide probe; macrocycle 750 nM
just bin them by fraction of fluorescent probe displaced: range 1: < 0.001; range 2: ≥ 0.001 and < 0.01; range 3: ≥ 0.01

Check out these entries, answers already filled in.
>>> assigned_class("O=C1CCSSCCNC(=O)[C@@H](Cc2c[nH]c3ccccc23)NC(=O)[C@H](CNC(=O)c2ccc3ccccc3c2)NC(=O)C2(CC2)CN1 [X-Amcp-Dap-D-Trp + Acid 107]")
"range 3"
>>> assigned_class("Cn1cc(C[C@@H]2NC(=O)[C@H](CNC(=O)c3ccc(Cl)s3)NC(=O)[C@@H]3CN(CCO3)C(=O)CCSSCCNC2=O)c2ccccc21 [X-Cop-Dap-Me-Trp + Acid 14]")
"range 2"
>>> assigned_class("O=C(/C=C/c1ccc(OCc2ccccc2)cc1)NC[C@H]1NC(=O)[C@H]2CCCN(C2)C(=O)CCSSCCNC(=O)[C@@H](Cc2c[nH]c3ccccc23)NC1=O [X-Nip-D-Dap-D-Trp + Acid 110]")
"range 1"
>>> assigned_class("O=C1CN(CCNC(=O)c2cccc(Oc3ccccc3)c2)C(=O)[C@H]2CCCN(C2)C(=O)CCSSCCNC(=O)[C@H](Cc2ccc3ccccc3c2)N1 [X-Nip-N-Aeg-2-Nal + Acid 111]")
"range 2"

Looking at O=C(/C=C/c1ccc2ccccc2c1)NC[C@H]1NC(=O)[C@@H]2CN(CCO2)C(=O)CCSSCCNC(=O)[C@H](Cc2ccc3ccccc3c2)NC1=O [X-Cop-D-Dap-2-Nal + Acid 112] , which class would you pick?
range 3

Looking at O=C(NC[C@H]1NC(=O)[C@@H]2CN(CCO2)C(=O)CCSSCCNC(=O)[C@H](Cc2c[nH]c3ccccc23)NC1=O)c1ccc(Cl)cc1 [X-Cop-D-Dap-Trp + Acid 25] , which class would you pick?
range 2

Looking at O=C1CCSSCCNC(=O)C(Cc2cccc3ccccc23)NC(=O)C(CNC(=O)C2CC2c2ccccc2)NC(=O)C2(CC2)CN1 (mixture of isomers) [X-Amcp-D-Dap-1-NaI + Acid 105] , which class would you pick?
range 1

###

# experimental_target: MDM2 (Homo sapiens)
# protocol_summary: MDM2 binding screen of Libraries 3 and 4: displacement of fluorescent probe F-M8 at 750 nM macrocycle
# test_context: Panel b, Library 3: 63 scaffolds combinatorially acylated with 15 carboxylic acids at 30 picomole scale; displacement of fluorescent peptide probe; macrocycle 750 nM
measurement_name: fraction of fluorescent probe displaced

>>> value_reported("CN1C(=O)CN(CCNC(=O)/C=C/c2ccc(Cl)cc2)C(=O)[C@H]2CCCN(C2)C(=O)CCSSCCNC(=O)[C@@H]1Cc1c[nH]c2ccccc12")
0.028
>>> value_reported("O=C1CCSSCCNC(=O)[C@H](Cc2c[nH]c3ccccc23)NC(=O)[C@@H](CNC(=O)c2ccc(Cl)s2)NC(=O)C2(CC2)CN1")
-0.00533

Turning to the following compound.
// query fraction of fluorescent probe displaced value for entry O=C1CN(CCNC(=O)C2COc3ccccc3O2)C(=O)[C@@H]2CN(CCO2)C(=O)CCSSCCNC(=O)[C@@H](Cc2c[nH]c3ccccc23)N1 (stereo partly drawn)
-0.00533

###

# experimental_target: MDM2 (Homo sapiens, UniProt Q00987)
# protocol_summary: MDM2 binding screen: displacement of fluorescent p53 peptide probe FP53 (fluorescence polarization)
# test_context: Acid 91; initial screen; crude macrocycle reactions
# Description: We screened Library 2 in 384-microwell plates by dispensing the target protein MDM2 and reporter peptide into the wells containing the macrocycle reactions. The products were screened for displacement of a p53-based fluorescent peptide from human MDM2. […] For each macrocycle, the MDM2 binding was measured once. One fluorescence anisotropy reading was taken with a Tecan Infinite F200 Pro fluorescence plate reader (excitation at 485 nm, emission at 535 nm) at 25 °C. […]
Classification field: enter fulfilled for fraction fluorescent probe displaced, Screen values not below 0.03, not fulfilled for values below it.

Check out these entries, answers already filled in.
>>> assigned_class("O=C1CCSSCCNC(=O)C2(CCN(C(=O)/C=C/c3ccccc3)CC2)NC(=O)[C@H]2CCCN(C2)C(=O)[C@H](Cc2ccccc2)N1 [X F B4 D6 Acid 91]")
"fulfilled"
>>> assigned_class("O=C1CCSSCCNC(=O)C2(CCN(C(=O)/C=C/c3ccccc3)CC2)NC(=O)CCNC(=O)[C@H](Cc2c[nH]c3ccccc23)N1 [X W B2 D6 Acid 91]")
"fulfilled"
>>> assigned_class("O=C(/C=C/c1ccccc1)N[C@H]1C[C@H]2C(=O)NCc3cccc(c3)C(=O)N[C@@H](Cc3c[nH]c4ccccc34)C(=O)NCCSSCCC(=O)N2C1 [X D5 B5 W Acid 91]")
"not fulfilled"
>>> assigned_class("O=C(/C=C/c1ccccc1)NC[C@@H]1NC(=O)CCNC(=O)[C@H](Cc2c[nH]c3ccccc23)NC(=O)CCSSCCNC1=O [X W B2 D3 Acid 91]")
"fulfilled"

Here is another compound to look at.
Would you say O=C(C=Cc1ccccc1)NC1CC2C(=O)NCc3cccc(c3)C(=O)NC(Cc3ccccc3)C(=O)NCCSSCCC(=O)N2C1 (stereo not shown) [X D5 B5 F Acid 91] shows fraction fluorescent probe displaced, Screen at minimum 0.03?
not fulfilled
